target: MSLN expressed on the cell surface of human cancer cell lines N87 and H226 (human, UniProt Q13421 37-598); assay: cell-based or functional assay
Exercise: for every item that follows, state its recorded IgG1-AL1-PE38KDEL IC50 (nM), cell viability of N87 cells.
Write the number in nM without appending the unit.

Prompt line: # input binder: ALA12 IgG (antibody, V domains shown) VH: EVQLVESGGGLVQPGGSLRLSCAASGFTIGNWTIHWVRQAPGKGLEWVALIWPESGATLYADSVKGRFTISADTSKNTAYLQMNSLRAEDTAVYYCARGRYWMDYWGQGTLVTVSS VL: DIQMTQSPSSLSASVGDRVTITCRASQDVRDGVAWYQQKPGKAPKLLIDQMVRLYSGVPSRFSGSGSGTDFTLTISSLQPEDFATYYCQQYFNWPVTFGQGTKVEIKR ; wanted: its IgG1-AL1-PE38KDEL IC50 (nM), cell viability of N87 cells
Response line: 0.1

Prompt line: # input binder: CHS7 IgG (antibody, V domains shown) VH: EVQLVESGGGLVQPGGSLRLSCAASGFTIDKEAIHWVRQAPGKGLEWVASIYPHSGFTLYADSVKGRFTISADTSKNTAYLQMNSLRAEDTAVYYCARGRYWMDYWGQGTLVTVSS VL: DIQMTQSPSSLSASVGDRVTITCRASQDVEDGVAWYQQKPGKAPKLLIGIKDLLYSGVPSRFSGSGSGTDFTLTISSLQPEDFATYYCQQYYRWPSTFGQGTKVEIKR ; wanted: its IgG1-AL1-PE38KDEL IC50 (nM), cell viability of N87 cells
Response line: 0.06

Prompt line: # input binder: CHS5 IgG (antibody, V domains shown, also called IgG1-CHS5) VH: EVQLVESGGGLVQPGGSLRLSCAASGFTITDRTIHWVRQAPGKGLEWVASIFPTKGVTTYADSVKGRFTISADTSKNTAYLQMNSLRAEDTAVYYCARGRYWMDYWGQGTLVTVSS VL: DIQMTQSPSSLSASVGDRVTITCRASQDVKEGVAWYQQKPGKAPKLLIDQSHRLYSGVPSRFSGSGSGTDFTLTISSLQPEDFATYYCQQYYAWPSTFGQGTKVEIKR ; wanted: its IgG1-AL1-PE38KDEL IC50 (nM), cell viability of N87 cells
Response line: 0.06

Prompt line: # input binder: CHS8 IgG (antibody, V domains shown) VH: EVQLVESGGGLVQPGGSLRLSCAASGFTISKASIHWVRQAPGKGLEWVASIWPTKGFTTYADSVKGRFTISADTSKNTAYLQMNSLRAEDTAVYYCARGRYWLDYWGQGTLVTVSS VL: DIQMTQSPSSLSASVGDRVTITCRASQDVKEGVAWYQQKPGKAPKLLIDERERLYSGVPSRFSGSGSGTDFTLTISSLQPEDFATYYCQQYNTWPATFGQGTKVEIKR ; wanted: its IgG1-AL1-PE38KDEL IC50 (nM), cell viability of N87 cells
Response line: 0.01
